// EC50 lookup, one value per entry
Biological target: Human Full Length PARG (Homo sapiens (Human), UniProt Q86W56)
Sequence (Q86W56 whole entry): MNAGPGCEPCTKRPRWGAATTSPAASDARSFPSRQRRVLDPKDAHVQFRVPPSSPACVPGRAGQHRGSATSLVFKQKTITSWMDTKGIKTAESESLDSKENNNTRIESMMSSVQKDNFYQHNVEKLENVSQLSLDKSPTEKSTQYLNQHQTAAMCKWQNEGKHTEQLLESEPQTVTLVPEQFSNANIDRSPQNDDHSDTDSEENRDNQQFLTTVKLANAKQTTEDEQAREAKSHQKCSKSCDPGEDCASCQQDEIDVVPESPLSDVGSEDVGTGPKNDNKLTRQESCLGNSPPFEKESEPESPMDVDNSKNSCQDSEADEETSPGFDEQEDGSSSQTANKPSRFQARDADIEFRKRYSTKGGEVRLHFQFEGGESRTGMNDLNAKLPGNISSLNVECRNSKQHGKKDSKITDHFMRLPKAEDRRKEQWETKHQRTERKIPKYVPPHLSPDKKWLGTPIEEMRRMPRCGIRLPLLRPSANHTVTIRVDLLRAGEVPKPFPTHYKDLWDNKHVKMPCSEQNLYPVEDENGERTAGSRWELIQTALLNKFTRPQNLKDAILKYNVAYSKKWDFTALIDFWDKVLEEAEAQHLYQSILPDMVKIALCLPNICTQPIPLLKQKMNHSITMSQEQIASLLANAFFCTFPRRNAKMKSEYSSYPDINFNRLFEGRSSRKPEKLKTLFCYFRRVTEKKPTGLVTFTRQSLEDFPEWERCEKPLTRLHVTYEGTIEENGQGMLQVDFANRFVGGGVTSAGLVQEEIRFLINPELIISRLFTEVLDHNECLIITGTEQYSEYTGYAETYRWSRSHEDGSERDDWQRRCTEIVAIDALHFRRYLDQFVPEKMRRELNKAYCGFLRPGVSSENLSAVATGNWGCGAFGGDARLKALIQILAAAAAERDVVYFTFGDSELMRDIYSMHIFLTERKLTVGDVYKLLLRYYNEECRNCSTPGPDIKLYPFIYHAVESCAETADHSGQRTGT
Test: PARG in vitro enzyme assay (TR-FRET)
Type: biochemical
Details: read-out: PARG_EC50_ENZYME

# molecule, assayedTarget, EC50, nM
measured = [
    ("COCCn1c(=O)n(-c2ncns2)c2cc(S(=O)(=O)NC3(CF)CC3)ccc21 [Example 183]", "Human Full Length PARG (Homo sapiens (Human), UniProt Q86W56)", 549),
    ("Cc1nc(C)c(Cn2c(=O)n(-c3cncs3)c3cc(S(=O)(=O)NC4(C)CC4)ccc32)s1 [Example 97]", "Human Full Length PARG (Homo sapiens (Human), UniProt Q86W56)", 816),
    ("Cn1c(=O)n(-c2nnc(C(F)F)s2)c2cc(S(=O)(=O)NC3(CF)CC3)ccc21 [Example 181]", "Human Full Length PARG (Homo sapiens (Human), UniProt Q86W56)", 291),
    ("COc1ccccc1Cn1c(=O)n(C)c2cc(S(=O)(=O)NC3(C)CC3)ccc21 [Example 35]", "Human Full Length PARG (Homo sapiens (Human), UniProt Q86W56)", 7690),
    ("Cc1cccc(Cn2c(=O)n(C)c3cc(S(=O)(=O)NC4(C)CC4)ccc32)c1 [Example 33]", "Human Full Length PARG (Homo sapiens (Human), UniProt Q86W56)", 6310),
    ("CCn1c(=O)n(-c2nnc(C(F)F)s2)c2cc(S(=O)(=O)NC3(C)CC3)c(F)cc21 [Example 207]", "Human Full Length PARG (Homo sapiens (Human), UniProt Q86W56)", 133),
    ("Cn1c(=O)n(-c2nncs2)c2cc(S(=O)(=O)NC3(C)CC3)ccc21 [Example 77]", "Human Full Length PARG (Homo sapiens (Human), UniProt Q86W56)", 5000),
    ("Cc1nc(C)c(Cn2c(=O)n(C3=CCCC3)c3cc(S(=O)(=O)NC4(C)CC4)ccc32)s1 [Example 113]", "Human Full Length PARG (Homo sapiens (Human), UniProt Q86W56)", 632),
]

From: patent US10508086B2
